- SYSTEM_TESTED: apical domain of CD71 (Screen 3: 'cynomolgus apical domain of human CD71') (cynomolgus (as paragraph 454 words it; ambiguous))
- EXPERIMENT: primary ELISA
Listed below: RLU values for each entry.
OUTCOME_MEASURE: RLU

binder="CD71-binding FN3 domain SEQ ID NO: 328 (designed binder) MSLPAPKNLVVSRVTEDSARLSWTAPDAAFDSFEIGYFGNLYLGEAIVLTVPGSERSYDLTGLKPGTEYWVQIGGVKGGNWSAPLSAIFTT" result="3.7e+06 RLU"
binder="CD71-binding FN3 domain SEQ ID NO: 247 (designed binder) MSLPAPKNLVVSRVTEDSARLSWTAPDAAFDSFEIGYFENLYLGEAIVLTVPGSERSYDLTGLKPGTEYWVQIGGVKGGEWSAPLSAIFTT" result="4.45e+06 RLU"
binder="CD71-binding FN3 domain SEQ ID NO: 309 (designed binder) MSLPAPENLVVSRVTEDSARLSWTAPDAAFDSFEIGYFENLYLGEAIVLTVPGSERSYDLTGLKPGTEYWVQIGGVKGGNWSAPLSAIFTT" result="5.62e+06 RLU"
binder="CD71-binding FN3 domain SEQ ID NO: 272 (designed binder) MSLPAPKNLVVSRVTEDSARLSWTAPDAAFDSFEIAYGEAAYDGEAIALLVPGSERSYDLTGLKPGTEYWVQIGGVKGGNWSAPLSAIFTT" result="4.66e+06 RLU"
